- System: SA4 cell line
- ASSAY_PROTOCOL: High throughput drug sensitivity and resistance test (CellTiter-Glo, 72 hours)
- Assay type: cell-based
- MEASUREMENT_CONTEXT: drug combined with BAY2666605 (40 nM) minus drug alone, SA4
QUANTITY: SA4 cell line: DSS(combo (BAY2666605))-DSS(drug)

Examples with answers:
{"COMPOUND": "O=C(CCCCCCC(=O)Nc1ccccc1)NO", "OBSERVED_MEASUREMENT": 13.7}
{"COMPOUND": "COc1c(OCCCN2CCOCC2)ccc2c1N=C(NC(=O)c1cnc(N)nc1)N1CCN=C21", "OBSERVED_MEASUREMENT": 8.1}
{"COMPOUND": "O=C(/C=C/c1cccc(S(=O)(=O)Nc2ccccc2)c1)NO", "OBSERVED_MEASUREMENT": 15.8}
{"COMPOUND": "CCCCc1nc2cc(/C=C/C(=O)NO)ccc2n1CCN(CC)CC", "OBSERVED_MEASUREMENT": 12}
{"COMPOUND": "CN(C)CCCOc1ccc(-c2ccc3ncc4c(c3c2)n(C2CCOCC2)c(=O)n4C)cn1", "OBSERVED_MEASUREMENT": 3}
{"COMPOUND": "CO[C@H]1C[C@@H]2CC[C@@H](C)[C@@](O)(O2)C(=O)C(=O)N2CCCC[C@H]2C(=O)O[C@H]([C@H](C)C[C@@H]2CC[C@@H](OC(=O)C(C)(CO)CO)[C@H](OC)C2)CC(=O)[C@H](C)/C=C(\\C)[C@@H](O)[C@@H](OC)C(=O)[C@H](C)C[C@H](C)/C=C/C=C/C=C/1C", "OBSERVED_MEASUREMENT": 5.3}
{"COMPOUND": "Cn1cc(CNCC2CCN(c3ncc(C(=O)NO)cn3)CC2)c2ccccc21", "OBSERVED_MEASUREMENT": 16.2}
{"COMPOUND": "CN(C)Cc1c(C(=O)NCCOc2ccc(C(=O)NO)cc2)oc2ccccc12", "OBSERVED_MEASUREMENT": 12.3}
{"COMPOUND": "CC1(C)CCC(c2ccc(Cl)cc2)=C(CN2CCN(c3ccc(C(=O)NS(=O)(=O)c4ccc(N[C@H](CCN5CCOCC5)CSc5ccccc5)c(S(=O)(=O)C(F)(F)F)c4)cc3)CC2)C1", "OBSERVED_MEASUREMENT": 28.5}
{"COMPOUND": "CC(=O)c1cnc2ccc(-c3cc(Cl)c(O)c(Cl)c3)nc2c1N[C@H]1CC[C@H](CN(C)C)CC1", "OBSERVED_MEASUREMENT": 10.5}

Entry CC1(C)CCC(CN2CCN(c3ccc(C(=O)NS(=O)(=O)c4ccc(NCC5CCOCC5)c([N+](=O)[O-])c4)c(Oc4cnc5[nH]ccc5c4)c3)CC2)=C(c2ccc(Cl)cc2)C1 : SA4 cell line: DSS(combo (BAY2666605))-DSS(drug) on SA4 cell line = 29

Form field, SA4 cell line: DSS(combo (BAY2666605))-DSS(drug) with SA4 cell line, item O=C(/C=C\n1cnc(-c2cc(C(F)(F)F)cc(C(F)(F)F)c2)n1)NNc1cnccn1 [Selinexor] : 5.4

The reported SA4 cell line SA4 cell line: DSS(combo (BAY2666605))-DSS(drug) of C[C@@]1(C(=O)Nc2ccc(F)nc2)CCCN1c1nc(Nc2cc(C3CC3)n[nH]2)c2cccn2n1 is 7.5

Case CO[C@H]1C[C@@H]2CC[C@@H](C)[C@@](O)(O2)C(=O)C(=O)N2CCCC[C@H]2C(=O)O[C@H]([C@H](C)C[C@@H]2CC[C@@H](OP(C)(C)=O)[C@H](OC)C2)CC(=O)[C@H](C)/C=C(\C)[C@@H](O)[C@@H](OC)C(=O)[C@H](C)C[C@H](C)/C=C/C=C/C=C/1C , SA4 cell line, SA4 cell line: DSS(combo (BAY2666605))-DSS(drug) recorded as 13.7

Assay SA4 cell line, sample CO[C@H]1C[C@@H]2CC[C@@H](C)[C@@](O)(O2)C(=O)C(=O)N2CCCC[C@H]2C(=O)O[C@H]([C@H](C)C[C@@H]2CC[C@@H](OCCO)[C@H](OC)C2)CC(=O)[C@H](C)/C=C(\C)[C@@H](O)[C@@H](OC)C(=O)[C@H](C)C[C@H](C)/C=C/C=C/C=C/1C , SA4 cell line: DSS(combo (BAY2666605))-DSS(drug) read: 12.4

Field SA4 cell line: DSS(combo (BAY2666605))-DSS(drug) (system: SA4 cell line) for entry COc1ccc(C[C@H](NC(=O)[C@H](C)NC(=O)CN2CCOCC2)C(=O)N[C@@H](Cc2ccccc2)C(=O)C2(C)CO2)cc1 (stereo in doubt) = 4.6

SA4 cell line: DSS(combo (BAY2666605))-DSS(drug) for SA4 cell line with input Cn1nnc2c(C(N)=O)ncn2c1=O [Temozolomide, temozolomide] equals 5.2

Item CC(C)C[C@@H](C(=O)N[C@H](C(=O)OC1CCCC1)c1ccccc1)[C@H](O)C(=O)NO was tested on SA4 cell line; the reported SA4 cell line: DSS(combo (BAY2666605))-DSS(drug) is 14.6

The value of SA4 cell line: DSS(combo (BAY2666605))-DSS(drug) recorded for CO[C@H]1C[C@@H]2CC[C@@H](C)[C@@](O)(O2)C(=O)C(=O)N2CCCC[C@H]2C(=O)O[C@H]([C@H](C)C[C@@H]2CC[C@@H](O)[C@H](OC)C2)CC(=O)[C@H](C)/C=C(\C)[C@@H](O)[C@@H](OC)C(=O)[C@H](C)C[C@H](C)/C=C/C=C/C=C/1C when tested on SA4 cell line reads 7.9

Form field SA4 cell line: DSS(combo (BAY2666605))-DSS(drug) for item Cc1c(-c2ccc(N3CCc4cccc(C(=O)Nc5nc6ccccc6s5)c4C3)nc2C(=O)O)cnn1CC12CC3CC(CC(C3)C1)C2 on SA4 cell line: 12.6

# SA4 cell line: DSS(combo (BAY2666605))-DSS(drug) measured on SA4 cell line for item CC(C)C[C@H](NC(=O)[C@H](Cc1ccccc1)NC(=O)c1cnccn1)B(O)O = 11.2

Query CC(C)N(C[C@H]1O[C@@H](n2cnc3c(N)ncnc32)[C@H](O)[C@@H]1O)[C@H]1C[C@@H](CCc2nc3cc(C(C)(C)C)ccc3[nH]2)C1 on SA4 cell line; SA4 cell line: DSS(combo (BAY2666605))-DSS(drug) returned: 9.8

Item CN(C)Cc1ccc(S(=O)(=O)n2ccc(/C=C/C(=O)NO)c2)cc1 was tested on SA4 cell line; the reported SA4 cell line: DSS(combo (BAY2666605))-DSS(drug) is 11.7
